Value source: patent US6413517B1

The reader will find reported IC50 values listed item by item below.
target: DRB1*1302 (DR6w19) (Homo sapiens, UniProt P01903+P01911, A100E/A169T/K41T/L162R/M171V/P40S/Q125H/Q178H/Q39Y/Q99D/R42S/S66N/T262R/V115G/W38E/Y61H); construct: Epstein-Barr virus (EBV) transformed homozygous cell lines were used as sources; the source of Class II molecules the EBV transformed homozygous cell line H0301; endogenous in cells; host or cells: H0301 (EBV-transformed homozygous B cell line); experiment: biochemical; assay type: binding; details: Binding Capacity (IC50% nM) DR6w19

get_value(item= CC[C@H](C)[C@H](N)C(=O)N1CCC[C@H]1C(=O)N[C@@H](CCC(N)=O)C(=O)N[C@@H](CCC(=O)O)C(=O)N[C@@H](Cc1c[nH]c2ccccc12)C(=O)N[C@@H](CCCCN)C(=O)N1CCC[C@H]1C(=O)N[C@@H](C)C(=O)N[C@H](C(=O)N[C@H](C(=O)N[C@H](C(=O)N[C@@H](CCCCN)C(=O)N[C@H](C(=O)N[C@@H](CC(C)C)C(=O)N1CCC[C@H]1C(=O)N[C@@H](C)C(=O)O)C(C)C)C(C)C)[C@@H](C)O)[C@@H](C)CC [Peptide 1136.21] , readout=IC50) returns 259 nM

Moving on to the next molecule.
get_value(item= CC[C@H](C)[C@H](NC(=O)[C@H](Cc1ccccc1)NC(=O)[C@H](Cc1ccccc1)NC(=O)[C@H](CO)NC(=O)[C@H](C)NC(=O)[C@@H]1CCCN1C(=O)[C@H](Cc1ccccc1)NC(=O)[C@@H](NC(=O)[C@@H](N)C(C)C)C(C)C)C(=O)N[C@@H](CCCCN)C(=O)N[C@@H](CC(C)C)C(=O)N1CCC[C@H]1C(=O)N[C@H](C(=O)N[C@H](C(=O)N[C@@H](CC(C)C)C(=O)N[C@@H](C)C(=O)O)[C@@H](C)CC)[C@@H](C)CC [Peptide 1136.11] , readout=IC50) returns > 10000 nM

----------
target: DRB1*0301 (DR3w17) (Homo sapiens, UniProt P01903+P01911, A100K/A102G/A103R/A169T/F55Y/I96L/K41T/L162R/M171V/P40S/Q125H/Q178H/Q39Y/R42S/S66N/T106N/T262R/W38E/Y61H); assay: biochemical; conditions: Binding Capacity (IC50% nM) DR3
REPORTED_METRIC: IC50

get_value(item= CC[C@H](C)[C@H](N)C(=O)N[C@@H](CCCCN)C(=O)N[C@@H](CC(C)C)C(=O)N1CCC[C@H]1C(=O)N[C@H](C(=O)N[C@H](C(=O)N[C@@H](CC(C)C)C(=O)N[C@@H](C)C(=O)N[C@@H](Cc1ccccc1)C(=O)N[C@@H](C)C(=O)N[C@H](C(=O)N[C@@H](CS)C(=O)N[C@@H](Cc1ccccc1)C(=O)N[C@@H](CC(C)C)C(=O)N[C@H](C(=O)N1CCC[C@H]1C(=O)O)[C@@H](C)CC)[C@@H](C)O)[C@@H](C)CC)[C@@H](C)CC [Peptide 1136.12] , readout=IC50) returns > 10000 nM

Moving on to the next compound.
get_value(item= CC[C@H](C)[C@H](NC(=O)[C@H](CO)NC(=O)[C@H](CO)NC(=O)[C@H](CC(N)=O)NC(=O)[C@@H](NC(=O)[C@@H](NC(=O)[C@H](CC(N)=O)NC(=O)[C@@H](N)Cc1ccccc1)C(C)C)C(C)C)C(=O)NCC(=O)N[C@@H](CC(C)C)C(=O)N[C@H](C(=O)N[C@@H](CCSC)C(=O)N[C@H](C(=O)N[C@@H](CC(C)C)C(=O)N[C@@H](CO)C(=O)O)C(C)C)[C@@H](C)CC [Peptide 27.384] , readout=IC50) returns > 10000 nM

----------
target: DRB1*0401 (DR4w4) (Homo sapiens, UniProt P01903+P01911, A100K/A169T/F76Y/I96L/K127E/L162R/M171V/N62H/P40V/Q125Y/R42H/S133A/S149N/S66Y/V115G/V209L/W38E); construct: Epstein-Barr virus (EBV) transformed homozygous cell lines were used as sources; endogenous in cells; host or cells: PREISS (EBV-transformed homozygous B cell line); assay: biochemical; type: binding; settings: Binding Capacity (IC 50% nM) DR1,4,7 DR4w4
REPORTED_METRIC: IC50

get_value(item= CC(C)[C@H](NC(=O)[C@H](CO)NC(=O)[C@@H](NC(=O)[C@H](C)NC(=O)[C@H](CO)NC(=O)[C@H](CO)NC(=O)[C@H](C)NC(=O)[C@H](C)NC(=O)[C@H](Cc1ccc(O)cc1)NC(=O)[C@@H](NC(=O)[C@H](CO)NC(=O)CNC(=O)[C@H](CCC(N)=O)NC(=O)[C@@H]1CCCN1C(=O)[C@@H](N)CCC(=O)O)[C@@H](C)O)[C@@H](C)O)C(=O)N[C@@H](CC(=O)O)C(=O)O [Peptide 1136.71] , readout=IC50) returns < 1000 nM

----------
molecular target: DRB1*0101 (DR1) (Homo sapiens, UniProt P01903+P01911, A100R/D57E/F55L/F60I/F76Y/I96L/L162R/M171V/P40L/Q125E/R42F/V115G/Y59C); construct: Epstein-Barr virus (EBV) transformed homozygous cell lines were used as sources; endogenous in cells; host or cells: LG2 (EBV-transformed homozygous B cell line); test: biochemical; type: binding; settings: Binding Capacity (IC 50% nM) DR1,4,7 DRB1
REPORTED_METRIC: IC50

Would you please look over these solved cases?
get_value(item= CC(C)[C@H](NC(=O)[C@H](CO)NC(=O)[C@@H](NC(=O)[C@H](C)NC(=O)[C@H](CO)NC(=O)[C@H](CO)NC(=O)[C@H](C)NC(=O)[C@H](C)NC(=O)[C@H](Cc1ccc(O)cc1)NC(=O)[C@@H](NC(=O)[C@H](CO)NC(=O)CNC(=O)[C@H](CCC(N)=O)NC(=O)[C@@H]1CCCN1C(=O)[C@@H](N)CCC(=O)O)[C@@H](C)O)[C@@H](C)O)C(=O)N[C@@H](CC(=O)O)C(=O)O [Peptide 1136.71] , readout=IC50) returns < 1000 nM

get_value(item= CC(C)C[C@H](NC(=O)CNC(=O)[C@H](C)NC(=O)[C@H](CC(C)C)NC(=O)[C@@H](NC(=O)[C@H](CO)NC(=O)[C@@H](NC(=O)[C@H](C)NC(=O)[C@H](CC(C)C)NC(=O)[C@H](CCCCN)NC(=O)[C@H](Cc1ccc(O)cc1)NC(=O)[C@@H](N)CCCCN)[C@@H](C)O)C(C)C)C(=O)N[C@@H](CC(C)C)C(=O)NCC(=O)N[C@@H](CC(N)=O)C(=O)O [Peptide F107.09] , readout=IC50) returns < 1000 nM

Moving on to the next compound.
get_value(item= CC(C)[C@H](NC(=O)[C@H](Cc1ccccc1)NC(=O)[C@@H](N)CCCCN)C(=O)N[C@H](C(=O)N1CCC[C@H]1C(=O)NCC(=O)N[C@@H](C)C(=O)N[C@@H](C)C(=O)N[C@H](C(=O)N1CCC[C@H]1C(=O)N[C@@H](Cc1ccc(O)cc1)C(=O)N[C@@H](C)C(=O)NCC(=O)N[C@@H](CCC(=O)O)C(=O)N1CCC[C@H]1C(=O)O)[C@@H](C)O)C(C)C [Peptide F107.17] , readout=IC50) returns < 1000 nM

----------
The reader will find reported IC50 values listed item by item below.
molecular target: DRB1*1501 (DR2w2b) (Homo sapiens, UniProt P01903+P01911); construct: expressed in transfected cells; host or cells: transfected fibroblasts L466.1; experiment: biochemical; format: binding; conditions: Binding Capacity (IC 50% nM) Other Alleles DR2w2b
No end group written: not given here.

get_value(item= LAAIIFLFGPPTALRS [Peptide 1136.28] , readout=IC50) returns < 1000 nM

Moving on to the next sequence.
get_value(item= GPPTALRSFGFAFGYM [Peptide 1136.29] , readout=IC50) returns < 1000 nM

----------
target: DRB1*0301 (DR3w17) (Homo sapiens, UniProt P01903+P01911, A100K/A102G/A103R/A169T/F55Y/I96L/K41T/L162R/M171V/P40S/Q125H/Q178H/Q39Y/R42S/S66N/T106N/T262R/W38E/Y61H); conditions: read-out: Binding Capacity (IC 50% nM) Other Alleles DR3
REPORTED_METRIC: IC50

Would you please look over these solved cases?
get_value(item= CC[C@H](C)[C@H](N)C(=O)N1CCC[C@H]1C(=O)N[C@@H](CCC(N)=O)C(=O)N[C@@H](CCC(=O)O)C(=O)N[C@@H](Cc1c[nH]c2ccccc12)C(=O)N[C@@H](CCCCN)C(=O)N1CCC[C@H]1C(=O)N[C@@H](C)C(=O)N[C@H](C(=O)N[C@H](C(=O)N[C@H](C(=O)N[C@@H](CCCCN)C(=O)N[C@H](C(=O)N[C@@H](CC(C)C)C(=O)N1CCC[C@H]1C(=O)N[C@@H](C)C(=O)O)C(C)C)C(C)C)[C@@H](C)O)[C@@H](C)CC [Peptide 1136.21] , readout=IC50) returns > 1000 nM

get_value(item= CC[C@H](C)[C@H](NC(=O)[C@H](CO)NC(=O)[C@H](CO)NC(=O)[C@H](CC(N)=O)NC(=O)[C@@H](NC(=O)[C@@H](NC(=O)[C@H](CC(N)=O)NC(=O)[C@@H](N)Cc1ccccc1)C(C)C)C(C)C)C(=O)NCC(=O)N[C@@H](CC(C)C)C(=O)N[C@H](C(=O)N[C@@H](CCSC)C(=O)N[C@H](C(=O)N[C@@H](CC(C)C)C(=O)N[C@@H](CO)C(=O)O)C(C)C)[C@@H](C)CC [Peptide 27.384] , readout=IC50) returns > 1000 nM

Continuing:
get_value(item= CC[C@H](C)[C@H](NC(=O)[C@H](CC(C)C)NC(=O)[C@H](CC(=O)O)NC(=O)[C@@H](NC(=O)[C@H](Cc1ccccc1)NC(=O)[C@H](Cc1ccc(O)cc1)NC(=O)[C@H](Cc1c[nH]cn1)NC(=O)[C@H](Cc1c[nH]cn1)NC(=O)[C@@H](N)[C@@H](C)O)C(C)C)C(=O)NCC(=O)NCC(=O)N[C@@H](C)C(=O)N[C@@H](CCSC)C(=O)N[C@@H](CC(C)C)C(=O)N[C@@H](CO)C(=O)N[C@@H](CC(C)C)C(=O)O [Peptide 1136.47] , readout=IC50) returns > 1000 nM
